# Tested on: HIV-1
# assay explanation: Anti-HIV assay with T4 lymphocytes (CEM-SS cell line), XTT, protection against HIV cytopathic effects
# Assay type: cell-based
# assay context: Human immunodeficiency virus 1; CEM-SS cell line; average of two repeat experiments; read-out: EC50 (50% effective concentration against HIV cytopathic effects)

[
  {
    "compound": "Cc1cn(C2C[C@H](N=[N+]=[N-])C(COC(=O)[C@@H]3OC(C)(C)O[C@@]34CCC3C5CCC6=CC(=O)C=CC6(C)C5C(O)CC34C)O2)c(=O)[nH]c1=O (stereo partly shown)",
    "EC50": "65 nM"
  }
]
